From: ChEMBL document CHEMBL4196200

# measuredTarget: Vasopressin V2 receptor (Homo sapiens, UniProt P30518)
# Sequence (P30518 whole entry): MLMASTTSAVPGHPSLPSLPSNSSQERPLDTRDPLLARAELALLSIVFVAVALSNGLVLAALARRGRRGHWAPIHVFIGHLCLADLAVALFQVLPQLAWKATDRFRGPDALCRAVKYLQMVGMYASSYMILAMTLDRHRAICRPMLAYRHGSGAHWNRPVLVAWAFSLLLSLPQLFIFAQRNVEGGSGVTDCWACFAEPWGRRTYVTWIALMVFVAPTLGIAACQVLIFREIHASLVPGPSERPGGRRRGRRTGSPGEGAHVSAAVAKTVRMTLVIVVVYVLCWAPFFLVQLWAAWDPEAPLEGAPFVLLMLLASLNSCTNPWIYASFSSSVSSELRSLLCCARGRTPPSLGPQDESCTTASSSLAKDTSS
# testMethodNotes: Agonist activity at V2 receptor (unknown origin) by cAMP accumulation assay
# Type: functional
measuredParameter: EC50

1. Cc1ccn(-c2ccc(C(=O)N3Cc4cccn4Cc4ccccc43)c(Cl)c2)n1: 700 pM

###

# measuredTarget: Vasopressin V2 receptor (Homo sapiens, UniProt P30518)
# testMethodNotes: Antagonist activity at V2 receptor (unknown origin)
# Assay type: functional
measuredParameter: IC50 (nM)

1. O=C(Nc1ccc(C(=O)N2CCCCc3ccccc32)cc1)c1ccccc1-c1ccccc1: 0.57

###

# measuredTarget: Vasopressin V2 receptor (Homo sapiens)
# testMethodNotes: Agonist activity at human V2 receptor expressed in HEK293FT cells incubated for 30 mins by beta-arrestin recruitment assay
# Format: functional, cell-based
pEC50: −log10 of the molar value.
measuredParameter: pEC50

1) Cc1cc(C(=O)N2Cc3cnn(C)c3Nc3ccccc32)ccc1CNC(=O)N1CCC[C@H]1C(=S)N(C)C: 6.18

###

# measuredTarget: Vasopressin V1a receptor (Homo sapiens)
# testMethodNotes: Binding affinity to V1A receptor (unknown origin)
# Sequence (P37288 whole entry): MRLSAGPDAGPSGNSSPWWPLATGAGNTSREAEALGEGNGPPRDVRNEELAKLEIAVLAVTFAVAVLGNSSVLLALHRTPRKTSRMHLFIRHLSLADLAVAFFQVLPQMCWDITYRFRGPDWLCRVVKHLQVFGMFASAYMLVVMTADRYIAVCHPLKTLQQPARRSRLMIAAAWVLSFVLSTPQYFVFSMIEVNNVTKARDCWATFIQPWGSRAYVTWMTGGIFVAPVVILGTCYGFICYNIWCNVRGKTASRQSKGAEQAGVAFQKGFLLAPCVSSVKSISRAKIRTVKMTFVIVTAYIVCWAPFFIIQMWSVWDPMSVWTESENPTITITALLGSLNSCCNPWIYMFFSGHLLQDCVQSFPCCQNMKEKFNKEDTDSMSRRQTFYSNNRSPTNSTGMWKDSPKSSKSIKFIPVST
measuredParameter: Ki

1. Cc1ccn(-c2ccc(C(=O)N3Cc4cccn4Cc4ccccc43)c(Cl)c2)n1: 0.465 µM

###

# measuredTarget: Vasopressin V2 receptor (Homo sapiens, UniProt P30518)
# testMethodNotes: Agonist activity at human V2 receptor expressed in human HeLa cells assessed as stimulation of cAMP accumulation by radioimmunoassay
# Type: functional, cell-based
measuredParameter: EC50 (µM)

1. CC(C)NC(=O)C[C@H]1CCCN(C(=O)c2ccc(N3CCCC3)cc2Cl)c2ccccc21: 0.189

###

# measuredTarget: Vasopressin V2 receptor (Homo sapiens)
# testMethodNotes: Antagonist activity at human V2 receptor expressed in HEK293FT cells assessed as inhibition of […] response incubated for 30 mins by beta-arrestin recruitment assay
# Type: functional, cell-based
measuredParameter: IC50

1) COCc1nnc(N2CC(Oc3ccc(F)cc3Cl)C2)n1-c1ccc(OC)nc1: 2620 nM

###

# measuredTarget: Vasopressin V2 receptor (Homo sapiens)
# testMethodNotes: Displacement of [3H]-AVP from human V2 receptor expressed in CHO cell membranes
measuredParameter: Ki (nM)

1. Cc1occc1C(=O)Nc1ccc(C(=O)N2CCC(F)(F)/C(=C\C(=O)N3CCC(N4CCCCC4)CC3)c3ccccc32)cc1: 381

###

# measuredTarget: Oxytocin receptor (Mus musculus) (UniProt P97926)
# Sequence (P97926 whole entry): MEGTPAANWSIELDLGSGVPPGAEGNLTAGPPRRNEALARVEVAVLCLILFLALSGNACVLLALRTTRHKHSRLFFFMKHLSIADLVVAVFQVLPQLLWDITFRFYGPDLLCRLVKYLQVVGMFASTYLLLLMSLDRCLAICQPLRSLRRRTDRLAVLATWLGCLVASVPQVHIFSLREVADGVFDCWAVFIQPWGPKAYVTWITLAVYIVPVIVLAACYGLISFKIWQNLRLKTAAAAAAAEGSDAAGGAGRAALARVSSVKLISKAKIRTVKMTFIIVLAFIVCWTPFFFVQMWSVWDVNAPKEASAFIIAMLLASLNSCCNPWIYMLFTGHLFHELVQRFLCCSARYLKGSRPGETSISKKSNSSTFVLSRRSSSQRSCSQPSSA
# testMethodNotes: Agonist activity at mouse OTR receptor expressed in HEK293FT cells assessed as stimulation of calcium release by Aequorin based assay relative to OT
# Assay type: functional, cell-based
Numbered stars: 1 amine (or outer) side, 2 acyl side, 3 side chain; on linkers, the order of the positions; unused ones are H or OH. Bridge positions count the residues as written; N and C are the ends. Peptide text beside a SMILES is read from it. X1 = O=C(CCC[*:2])[*:1]
measuredParameter: Emax

1. Cc1cc(C(=O)N2Cc3cnn(C)c3Nc3ccccc32)ccc1CNC(=O)N1CCC[C@H]1C(=S)N(C)C: 96%
2. CC[C@H](C)[C@@H]1NC(=O)[C@H](Cc2ccc(OC)cc2)NC(=O)CCCSC[C@@H](C(=O)N2CCC[C@H]2C(=O)N[C@@H](CC(C)C)C(=O)NCC(N)=O)NC(=O)[C@H](CC(N)=O)NC(=O)[C@H](CCC(N)=O)NC1=O [CARBETOCIN] (Y(Me)IQNCPLG-NH2; linker N-5 via X1): 85%
3. Cc1cc(C(=O)N2Cc3cnn(C)c3Nc3ccccc32)ccc1CNC(=O)N1CCN(Cc2cc(O)cc(O)c2)CC1: 86%
4. CC[C@H](C)[C@@H]1NC(=O)[C@H](Cc2ccc(O)cc2)NC(=O)[C@@H](N)CSSC[C@@H](C(=O)N2CCC[C@H]2C(=O)N[C@@H](CC(C)C)C(=O)NCC(N)=O)NC(=O)[C@H](CC(N)=O)NC(=O)[C@H](CCC(N)=O)NC1=O: 100%

###

# measuredTarget: Vasopressin V1a receptor (Homo sapiens, UniProt P37288)
# testMethodNotes: Agonist activity at human V1A receptor expressed in CHO cells assessed as increase in myo-inositol 1-phosphate accumulation at 1 uM by IP-One assay relative to AVP
# Assay type: functional, cell-based
# Sequence (P37288 whole entry, looked up): as the sequence (P37288 whole entry) above
Entries and their Emax values follow.
measuredParameter: Emax

1. Cc1ccn(-c2ccc(C(=O)N3CCCCCC3)c(Cl)c2)n1: < 10%
2. Cc1ccn(-c2ccc(C(=O)N3Cc4cccn4Cc4ccccc43)c(Cl)c2)n1: < 10%
3. O=C(c1ccc(I)cc1)N1CCCCc2ccccc21: < 10%
4. O=C(c1ccc(Cl)cc1)N1CCCCc2ccccc21: < 10%
5. CCCCc1ccc(C(=O)N2CCCCc3ccccc32)cc1: < 10%
6. O=C(c1ccc(-c2cccnc2)cc1)N1CCCCc2ccccc21: < 10%
7. O=C(c1ccc(-c2ncccn2)cc1)N1CCCCc2ccccc21: < 10%
8. Cc1ccn(-c2ccc(C(=O)N3CCCC(N(C)C)c4ccccc43)cc2)n1 (stereo unspecified): < 10%
9. Cc1ccn(-c2ccc(C(=O)N3CCCC(O)c4ccccc43)c(Cl)c2)n1 (stereo unspecified): < 10%
10. Cc1ccn(-c2ccc(C(=O)N3CCCCc4ccccc43)cc2)n1: < 10%
11. Cc1ccn(-c2ccc(C(=O)N3CCCC(=O)c4ccccc43)cc2)n1: < 10%

###

Ki listing for selected molecules.
# measuredTarget: Vasopressin V1a receptor (Homo sapiens, UniProt P37288)
# testMethodNotes: Displacement of DY647 from SNAP-tagged V1A receptor (unknown origin) expressed in HEK293 cells by TR-FRET assay
# Assay type: cell-based
measuredParameter: Ki (nM)

1) Cc1cc(C(=O)N2Cc3cnn(C)c3Nc3ccccc32)ccc1CNC(=O)NCC(=S)N(C)C: 82
2) Cc1cc(C(=O)N2Cc3cnn(C)c3Nc3ccccc32)ccc1CNC(=O)N1CCC[C@H]1C(=S)N1CCCN(C)CC1: 196
3) Cc1cc(C(=O)N2Cc3cnn(C)c3Nc3ccccc32)ccc1CNC(=O)N1CCC[C@H]1C(=S)N(C)C: 1250

###

# measuredTarget: Vasopressin V1a receptor (Homo sapiens)
# testMethodNotes: Antagonist activity at human V1A receptor expressed in HEK cells assessed as inhibition of AVP-induced intracellular calcium flux incubated for 45 mins by Indo1-AM dye based fluorescence assay relative to AVP
# Assay type: functional, cell-based
measuredParameter: log10 of IC50 (log10 of the value in nM)

1) Cc1cc(C(=O)N2Cc3cnn(C)c3Nc3ccccc32)ccc1CNC(=O)N1CCC[C@H]1C(=S)N(C)C: 2.00
2) Cc1cc(C(=O)N2Cc3cnn(C)c3Nc3ccccc32)ccc1CNC(=O)N1CCC[C@H]1C(=O)N(C)C: 1.98
3) Cc1cc(C(=O)N2Cc3cnn(C)c3Nc3ccccc32)ccc1CNC(=O)NCC(=S)N(C)C: 0.95
4) Cc1cc(C(=O)N2Cc3cnn(C)c3Nc3ccccc32)ccc1CNC(=O)N1CCC[C@H]1C(=S)N1CCCN(C)CC1: 0.90
5) Cc1cc(C(=O)N2Cc3cnn(C)c3Nc3ccccc32)ccc1CNC(=O)NCC(=O)N(C)C: 1.70
6) COC(=O)CNC(=O)NCc1ccc(C(=O)N2Cc3cnn(C)c3Nc3ccccc32)cc1C: 2.04

###

# measuredTarget: Vasopressin V2 receptor (Homo sapiens, UniProt P30518)
# testMethodNotes: Displacement of DY647 from SNAP-tagged V2 receptor (unknown origin) expressed in HEK293 cells by TR-FRET assay
# Format: cell-based
measuredParameter: Ki

1. Cc1cc(C(=O)N2Cc3cnn(C)c3Nc3ccccc32)ccc1CNC(=O)N1CCC[C@H]1C(=S)N(C)C: 1670 nM
2. Cc1cc(C(=O)N2Cc3cnn(C)c3Nc3ccccc32)ccc1CNC(=O)NCC(=S)N(C)C: > 1000 nM
3. Cc1cc(C(=O)N2Cc3cnn(C)c3Nc3ccccc32)ccc1CNC(=O)N1CCN(Cc2cc(O)cc(O)c2)CC1: > 1000 nM
4. COC(=O)CNC(=O)NCc1ccc(C(=O)N2Cc3cnn(C)c3Nc3ccccc32)cc1C: > 1000 nM
5. Cc1cc(C(=O)N2Cc3cnn(C)c3Nc3ccccc32)ccc1CNC(=O)N1CCC[C@H]1C(=O)N(C)C: > 1000 nM
6. Cc1cc(C(=O)N2Cc3cnn(C)c3Nc3ccccc32)ccc1CNC(=O)NCC(=O)N(C)C: > 1000 nM

###

Recorded measurements of inhibition, one per entry
# measuredTarget: Oxytocin receptor (Homo sapiens)
# testMethodNotes: Antagonist activity at human OTR receptor expressed in CHO cells assessed as inhibition of OT-induced myo-inositol 1-phosphate accumulation at 1 uM by IP-One assay relative to OT
# Type: functional, cell-based
measuredParameter: inhibition

1. O=C(c1ccc(I)cc1)N1CCCCc2ccccc21: 36%
2. O=C(c1ccc(-c2ncccn2)cc1)N1CCCCc2ccccc21: 30.6%
3. Cc1ccn(-c2ccc(C(=O)N3CCCCCC3)c(Cl)c2)n1: < 10%
4. Cc1ccn(-c2ccc(C(=O)N3CCCC(=O)c4ccccc43)c(Cl)c2)n1: 14%
5. Cc1ccn(-c2ccc(C(=O)N3CCCC(N(C)C)c4ccccc43)c(Cl)c2)n1 (stereo not drawn): < 10%
6. Cc1ccn(-c2ccc(C(=O)N3CCCC(O)c4ccccc43)c(Cl)c2)n1 (stereo not drawn): 28%
7. O=C(c1ccc(Cl)cc1)N1CCCCc2ccccc21: 24.1%
8. Cc1ccn(-c2ccc(C(=O)N3CCCC(O)c4ccccc43)cc2)n1 (stereo not drawn): 45%
9. CC(=O)Nc1ccc(C(=O)N2CCCCc3ccccc32)cc1: 32%
10. O=C(c1ccc(Br)cc1)N1CCCCc2ccccc21: 20%
11. C[N+](C)(C)c1ccc(C(=O)N2CCCCc3ccccc32)cc1: 19%
12. Nc1ccc(C(=O)N2CCCCc3ccccc32)cc1: 15%
13. Cc1ccn(-c2ccc(C(=O)N3CCCC(N(C)C)c4ccccc43)cc2)n1 (stereo not drawn): 21%
